- Test Protocol: In vivo efficacy of the inhibitory effect on BTK target (anti-IgD antibody-induced B cell activation in mice whole blood after in vivo administration)
- Conditions: female, C57BL/6, mouse; 20 mg/kg single oral gavage, 16 h, mice plasma; read-out: Drug concentration in plasma
Metric Name: concentration at 16 h (ng/mL)
Numbers only, in ng/mL.

For Cn1cc(-c2ccnc(-n3ccn4c5c(cc4c3=O)CC(C)(C)C5)c2CO)cc(Nc2ccc(N3CCN4CCOCC4C3)cn2)c1=O (racemic) the compound record lists concentration at 16 h as 76.2

###

Can you tell me IC50 for the items I'm about to list?
- System Under Test: phosphorylated BTK in Ramos cells (Homo sapiens (Human), UniProt Q06187)
- Sequence (Q06187 whole entry): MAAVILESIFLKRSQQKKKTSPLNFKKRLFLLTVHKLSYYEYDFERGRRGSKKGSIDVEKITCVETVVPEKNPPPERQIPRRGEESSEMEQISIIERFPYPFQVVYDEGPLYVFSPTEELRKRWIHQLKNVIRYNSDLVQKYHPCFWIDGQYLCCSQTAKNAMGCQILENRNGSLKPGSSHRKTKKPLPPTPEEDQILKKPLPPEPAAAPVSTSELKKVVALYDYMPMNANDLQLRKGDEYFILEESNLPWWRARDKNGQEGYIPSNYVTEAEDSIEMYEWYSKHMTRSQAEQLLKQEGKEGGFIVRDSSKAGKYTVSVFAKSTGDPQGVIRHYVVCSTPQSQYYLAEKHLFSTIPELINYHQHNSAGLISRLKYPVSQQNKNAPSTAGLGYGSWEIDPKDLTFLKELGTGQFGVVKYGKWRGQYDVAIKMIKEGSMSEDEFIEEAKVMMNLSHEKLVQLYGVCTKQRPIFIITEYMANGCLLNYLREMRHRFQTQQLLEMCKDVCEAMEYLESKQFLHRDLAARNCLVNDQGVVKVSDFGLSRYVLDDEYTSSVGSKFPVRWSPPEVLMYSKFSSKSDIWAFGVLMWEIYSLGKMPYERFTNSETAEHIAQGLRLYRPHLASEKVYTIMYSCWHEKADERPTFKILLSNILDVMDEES
- Test Protocol: Determination of phosphorylated BTK in Ramos cells (BTK phospho-Y223 HTRF)
- Conditions: anti-human IgM + hydrogen peroxide stimulation
Answers are plain numbers, in nM.

>>> meas_value("CC[C@H]1CN(C2COC2)CCN1c1ccc(Nc2cc(-c3ccnc(-n4ccn5c6c(cc5c4=O)CC(C)(C)C6)c3CO)cn(C)c2=O)nn1")
10
>>> meas_value("COCCN1CCn2nc(Nc3cc(-c4ccnc(-n5ccn6c(c(F)c7ccccc76)c5=O)c4CO)cn(C)c3=O)cc2C1")
21

For COCCN1CCn2nc(Nc3cc(-c4ccnc(-n5ccn6c7c(cc6c5=O)CC(C)C7)c4CO)cn(C)c3=O)cc2C1 (stereo not drawn) the compound record lists IC50 as 20
